Protocol Notes: Tissue distribution in rats after oral administration
Format: in vivo, male Sprague-Dawley rats
Run Parameters: male, Sprague-Dawley, rat, duodenum lumen content, PO 25 mg/kg, 7 h, average, N = 3, read-out: Duod. Content concentration

{"Molecule": "CC(C)(O)CNC(=O)Cc1nc2cnc3[nH]ccc3c2n1[C@H]1CC[C@H](CC#N)CC1 [Compound of Formula I]", "concentration at 7 h, ng/mL": 2630}

---

Protocol Notes: Serum and colon concentrations in explant studies SS-1 and SS-2
Type: in vivo, C57BL/6 mice
Run Parameters: C57BL/6, mouse, serum, po, 25 mg/kg, SS-2; mice, 4 hours post oral dose 25 mg/kg; mean±SEM; read-out: Serum concentration

{"Smiles Record": "CC(C)(O)CNC(=O)Cc1nc2cnc3[nH]ccc3c2n1[C@H]1CC[C@H](CC#N)CC1", "concentration at 4 h": "6.3 nM"}

---

Protocol Notes: Serum and colonic concentrations in IL-12/IL-18 studies S-1 and S-2
Assay type: in vivo, C57BL/6 mice
Run Parameters: C57BL/6, mouse, serum, po, 25 mg/kg, S-2; mice, oral 25 mg/kg; mean±SEM; read-out: Serum 4 h post dosing
Quantity: concentration at 4 h (µM)

{"Smiles Record": "CC(C)(O)CNC(=O)Cc1nc2cnc3[nH]ccc3c2n1[C@H]1CC[C@H](CC#N)CC1", "Result Value": 0.0451}

---

Protocol Notes: Tissue distribution in rats after oral administration
Assay type: in vivo, male Sprague-Dawley rats
Run Parameters: male, Sprague-Dawley, rat, colon tissue, PO 25 mg/kg, 5 h, average, N = 3, read-out: Colon Tissue concentration

{"Smiles Record": "CC(C)(O)CNC(=O)Cc1nc2cnc3[nH]ccc3c2n1[C@H]1CC[C@H](CC#N)CC1", "Unit String": "ng/g", "concentration at 5 h": 33500}

---

Protocol Notes: Tissue distribution in mice after oral administration
Type: in vivo, female C57Bl/6 mice
Run Parameters: female, C57Bl/6, mouse, liver, oral 10 mg/kg, 1 h, mean ± SD, read-out: Liver concentration

{"Smiles Record": "CC(C)(O)CNC(=O)Cc1nc2cnc3[nH]ccc3c2n1[C@H]1CC[C@H](CC#N)CC1", "Unit String": "ng/g", "concentration at 1 h": 189}

---

Protocol Notes: Serum and colon concentrations in explant studies SS-1 and SS-2
Format: in vivo, C57BL/6 mice
Run Parameters: C57BL/6, mouse, colon, po, 2.5 mg/kg, SS-1; mice, 4 hours post oral dose 2.5 mg/kg; mean±SEM; read-out: Colon concentration
Description: C57BL/6 mice (6 to 8 weeks old) were randomized by weight and assigned to various treatment groups for each study. Mice were dosed orally with indicated doses of compound of Formula I. At the termination of the study, blood was collected via cardiocentesis, serum and washed proximal colon was prepared for PK analysis. […] Data are presented as mean±SEM; N=5/group. BLOQ, below limit of quantification.
Quantity: concentration at 4 h (ng/g)

{"Compound": "CC(C)(O)CNC(=O)Cc1nc2cnc3[nH]ccc3c2n1[C@H]1CC[C@H](CC#N)CC1 [Compound of Formula I]", "Result Value": 2840}

---

Protocol Notes: Serum and colonic concentrations in IL-12/IL-18 studies S-1 and S-2
Assay type: in vivo, C57BL/6 mice
Run Parameters: C57BL/6, mouse, serum, po, 50 mg/kg, S-1; mice, oral 50 mg/kg; mean±SEM; read-out: Serum 4 h post dosing

{"Molecule": "CC(C)(O)CNC(=O)Cc1nc2cnc3[nH]ccc3c2n1[C@H]1CC[C@H](CC#N)CC1 [Compound of Formula I]", "concentration at 4 h, nM": 19.7}

---

Protocol Notes: Tissue distribution in mice after oral administration
Assay type: in vivo, female C57Bl/6 mice
Run Parameters: female, C57Bl/6, mouse, ileum, oral 10 mg/kg, 5 h, mean ± SD, read-out: Ileum concentration

{"Smiles Record": "CC(C)(O)CNC(=O)Cc1nc2cnc3[nH]ccc3c2n1[C@H]1CC[C@H](CC#N)CC1", "concentration at 5 h [ng/g]": 3440}

---

Protocol Notes: Tissue distribution in rats after oral administration
Assay type: in vivo, male Sprague-Dawley rats
Run Parameters: male, Sprague-Dawley, rat, duodenum tissue, PO 25 mg/kg, 1 h, average, N = 3, read-out: Duod. Tissue concentration
Quantity: concentration at 1 h (ng/g)

{"Smiles Record": "CC(C)(O)CNC(=O)Cc1nc2cnc3[nH]ccc3c2n1[C@H]1CC[C@H](CC#N)CC1", "Unit String": "ng/g", "Result Value": 16700}

---

Protocol Notes: Tissue distribution in rats after oral administration
Type: in vivo, male Sprague-Dawley rats
Run Parameters: male, Sprague-Dawley, rat, jejunum tissue, PO 25 mg/kg, 2 h, average, N = 3, read-out: Jejunum Tissue concentration

{"Smiles Record": "CC(C)(O)CNC(=O)Cc1nc2cnc3[nH]ccc3c2n1[C@H]1CC[C@H](CC#N)CC1", "concentration at 2 h / ng/g": 8230}

---

Protocol Notes: Tissue distribution in rats after oral administration
Format: in vivo, male Sprague-Dawley rats
Run Parameters: male, Sprague-Dawley, rat, colon lumen content, PO 25 mg/kg, 24 h, average, N = 3, read-out: Colon Content concentration

{"Compound": "CC(C)(O)CNC(=O)Cc1nc2cnc3[nH]ccc3c2n1[C@H]1CC[C@H](CC#N)CC1 [Compound of Formula I]", "concentration at 24 h, ng/mL": 7590}

---

Protocol Notes: Tissue distribution in rats after oral administration
Assay type: in vivo, male Sprague-Dawley rats
Run Parameters: male, Sprague-Dawley, rat, colon tissue, PO 25 mg/kg, 3 h, average, N = 3, read-out: Colon Tissue concentration
Quantity: concentration at 3 h (ng/g)

{"Smiles Record": "CC(C)(O)CNC(=O)Cc1nc2cnc3[nH]ccc3c2n1[C@H]1CC[C@H](CC#N)CC1", "Quantity": "concentration at 3 h", "Unit String": "ng/g", "Result Value": 12400}

---

Protocol Notes: Tissue distribution in mice after oral administration
Type: in vivo, female C57Bl/6 mice
Run Parameters: female, C57Bl/6, mouse, colon, oral 10 mg/kg, 2 h, mean ± SD, read-out: Colon concentration
Quantity: concentration at 2 h

{"Smiles Record": "CC(C)(O)CNC(=O)Cc1nc2cnc3[nH]ccc3c2n1[C@H]1CC[C@H](CC#N)CC1", "Result Value": "6620 ng/g"}

---

Protocol Notes: Tissue distribution in rats after oral administration
Assay type: in vivo, male Sprague-Dawley rats
Run Parameters: male, Sprague-Dawley, rat, jejunum tissue, PO 25 mg/kg, 3 h, average, N = 3, read-out: Jejunum Tissue concentration

{"Compound": "CC(C)(O)CNC(=O)Cc1nc2cnc3[nH]ccc3c2n1[C@H]1CC[C@H](CC#N)CC1 [Compound of Formula I]", "Unit String": "ng/g", "concentration at 3 h": 3980}

---

Protocol Notes: Serum and colonic concentrations in IL-12/IL-18 studies S-1 and S-2
Type: in vivo, C57BL/6 mice
Run Parameters: C57BL/6, mouse, colon, po, 50 mg/kg, S-2; mice, oral 50 mg/kg; mean±SEM; read-out: Colon 4 h post dosing

{"Smiles Record": "CC(C)(O)CNC(=O)Cc1nc2cnc3[nH]ccc3c2n1[C@H]1CC[C@H](CC#N)CC1", "concentration at 4 h (ng/g)": 35600}

---

Protocol Notes: Tissue distribution in rats after oral administration
Type: in vivo, male Sprague-Dawley rats
Run Parameters: male, Sprague-Dawley, rat, colon lumen content, PO 25 mg/kg, 7 h, average, N = 3, read-out: Colon Content concentration

{"Smiles Record": "CC(C)(O)CNC(=O)Cc1nc2cnc3[nH]ccc3c2n1[C@H]1CC[C@H](CC#N)CC1", "Unit String": "µg/mL", "concentration at 7 h": 834}

---

Protocol Notes: Tissue distribution in rats after oral administration
Format: in vivo, male Sprague-Dawley rats
Run Parameters: male, Sprague-Dawley, rat, duodenum lumen content, PO 25 mg/kg, 24 h, average, N = 3, read-out: Duod. Content concentration
Quantity: concentration at 24 h (ng/mL)

{"Compound": "CC(C)(O)CNC(=O)Cc1nc2cnc3[nH]ccc3c2n1[C@H]1CC[C@H](CC#N)CC1 [Compound of Formula I]", "Unit String": "ng/mL", "Result Value": 60}

---

Protocol Notes: Tissue distribution in rats after oral administration
Assay type: in vivo, male Sprague-Dawley rats
Run Parameters: male, Sprague-Dawley, rat, duodenum tissue, PO 25 mg/kg, 0.5 h, average, N = 3, read-out: Duod. Tissue concentration
Quantity: concentration at 0.5 h (ng/g)

{"Compound": "CC(C)(O)CNC(=O)Cc1nc2cnc3[nH]ccc3c2n1[C@H]1CC[C@H](CC#N)CC1 [Compound of Formula I]", "Unit String": "ng/g", "Result Value": 35200}

---

Protocol Notes: Tissue distribution in rats after oral administration
Format: in vivo, male Sprague-Dawley rats
Run Parameters: male, Sprague-Dawley, rat, kidney, PO 25 mg/kg, 3 h, average ±SD, read-out: Kidney concentration
Quantity: concentration at 3 h

{"Smiles Record": "CC(C)(O)CNC(=O)Cc1nc2cnc3[nH]ccc3c2n1[C@H]1CC[C@H](CC#N)CC1", "Result Value": "30 ng/g"}
